Measured % bound, C-RAF259 (11mer), 16h, listed per entry for reference.
- system-tested: 14-3-3σ/C-RAF259 (Homo sapiens, UniProt P31947)
- Sequence (P31947 whole entry, other chains not shown): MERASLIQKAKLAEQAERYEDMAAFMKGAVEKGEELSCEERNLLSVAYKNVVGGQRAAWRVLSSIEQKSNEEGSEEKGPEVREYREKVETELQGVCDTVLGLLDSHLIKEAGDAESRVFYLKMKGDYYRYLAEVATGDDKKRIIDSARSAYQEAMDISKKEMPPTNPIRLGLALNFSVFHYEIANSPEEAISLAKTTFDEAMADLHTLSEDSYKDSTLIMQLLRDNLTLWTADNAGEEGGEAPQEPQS
- assay-info: Intact mass spectrometry assay with C-RAF259 phospho-peptide
- Format: binding
- Design: full-length for mass spectrometry and fluorescence anisotropy assays; made in house; host or cells: E. coli Rosetta 2(DE3)pLysS (14-3-3σ); peptides from Elim Biopharmaceuticals
- experimental-parameters: 1 μM compound, 100 nM 14-3-3σ, 18 µM peptide, 16 h
Express the result in % but write the number alone.

{"columns": ["smiles-str", "system-tested", "% bound, C-RAF259 (11mer), 16h (%)"],
 "data": [
  ["O=C(CCl)NCC1CCN(S(=O)(=O)Cc2ccc(Cl)cc2)CC1", "14-3-3σ/C-RAF259 (Homo sapiens, UniProt P31947)", 2.9]
]}

Prompt line: Param request: % bound, C-RAF259 (11mer), 16h | system 14-3-3σ/C-RAF259 (Homo sapiens, UniProt P31947) | item O=C(CCl)NCC1CCN(S(=O)(=O)c2cccc(C(F)(F)F)c2)CC1
Response line: 6.5

Prompt line: Param request: % bound, C-RAF259 (11mer), 16h | system 14-3-3σ/C-RAF259 (Homo sapiens, UniProt P31947) | item Cc1ccc(S(=O)(=O)N2CCC(CNC(=O)CCl)CC2)cc1
Response line: 26.7

Prompt line: Param request: % bound, C-RAF259 (11mer), 16h | system 14-3-3σ/C-RAF259 (Homo sapiens, UniProt P31947) | item O=C(CCl)NCC1CCN(S(=O)(=O)c2ccc(OC(F)(F)F)cc2)CC1
Response line: 69.5

Prompt line: Param request: % bound, C-RAF259 (11mer), 16h | system 14-3-3σ/C-RAF259 (Homo sapiens, UniProt P31947) | item COc1ccc(S(=O)(=O)N2CCC(CNC(=O)CCl)CC2)cc1
Response line: 27.1

Prompt line: Param request: % bound, C-RAF259 (11mer), 16h | system 14-3-3σ/C-RAF259 (Homo sapiens, UniProt P31947) | item O=C(C(Cl)Cl)N1CC2(CCN(S(=O)(=O)c3ccc(Br)c(F)c3)CC2(F)F)C1
Response line: 0

Prompt line: Param request: % bound, C-RAF259 (11mer), 16h | system 14-3-3σ/C-RAF259 (Homo sapiens, UniProt P31947) | item O=C(CCl)NCC1CCN(S(=O)(=O)Cc2ccc(F)cc2)CC1
Response line: 2.5

Prompt line: Param request: % bound, C-RAF259 (11mer), 16h | system 14-3-3σ/C-RAF259 (Homo sapiens, UniProt P31947) | item O=C(CCl)NCC1CCN(S(=O)(=O)c2cccc(F)c2)CC1
Response line: 18

Prompt line: Param request: % bound, C-RAF259 (11mer), 16h | system 14-3-3σ/C-RAF259 (Homo sapiens, UniProt P31947) | item O=C(CCl)NCC1CCN(S(=O)(=O)c2ccc(Br)cc2F)CC1
Response line: 69.5

====

- system-tested: 14-3-3σ/C-RAF259 (Homo sapiens)
- assay-info: Intact mass spectrometry assay with C-RAF259 phospho-peptide
- Assay type: binding
- Set-up: full-length for mass spectrometry and fluorescence anisotropy assays; made in house; host or cells: E. coli Rosetta 2(DE3)pLysS (14-3-3σ); peptides from Elim Biopharmaceuticals
- experimental-parameters: 1 μM compound, 100 nM 14-3-3σ, 18 µM peptide, 16 h
experimental-readout: % bound, C-RAF259 (11mer), 16h (%)
Express the result in % but write the number alone.

Examples from the recorded data:
{"columns": ["compound", "% bound, C-RAF259 (11mer), 16h / %"],
 "data": [
  ["O=C(CCl)N1CC2(CCN(S(=O)(=O)c3ccc(Br)c(F)c3)CC2(F)F)C1", 64.3],
  ["C=C(F)C(=O)N1CC2(CCN(S(=O)(=O)c3ccc(Br)c(F)c3)CC2(F)F)C1", 0],
  ["O=C(CCl)NCC1CCN(S(=O)(=O)Cc2ccccc2)CC1", 6.5]
]}

Prompt line: // fetch % bound, C-RAF259 (11mer), 16h given entry O=C(CCl)NCC1CCN(S(=O)(=O)C2CCC3(CC2)CC3(F)F)CC1 (centres unmarked)
Response line: 0.9

Prompt line: // fetch % bound, C-RAF259 (11mer), 16h given entry N#Cc1ccc(S(=O)(=O)N2CCC(CNC(=O)CCl)CC2)cc1
Response line: 23.9
